# targetOrSystem: 5-HT1A receptor (Sus scrofa)
# Construct: Swine hippocampus was homogenized in a 50 mM Tris-Hcl buffer; from tissue; host or cells: swine hippocampus, membrane fraction
# procedureText: Affinity for serotonin 1A receptor: inhibition of [3H]MPPF binding in swine hippocampal membrane fraction
# condition: [3H]MPPF 0.5 nM, swine hippocampal membrane, receptor in high affinity (G-protein binding, MgCl2 10 mM) state, 37°C 30 min; read-out: High affinity IC50
pIC50: −log10 of the molar value.
endpointLabel: pIC50

Recorded results for 5 molecules are shown here.
COc1cc2c(cc1CCN1CCC(n3ccc4ccc(C(N)=O)cc43)CC1)C(=O)CCCO2; 9.77
CCc1nc2ccc(OC)c(CCN3CCC(n4ccc5ccc(C(N)=O)cc54)CC3)c2o1; 9.24
COc1cc2c(cc1CCN1CCC(n3ccc4ccc(C(N)=O)cc43)CC1)C(=O)CC(C)(C)O2; 9.66
COc1cc2c(cc1CCN1CCC(n3ccc4ccc(C(N)=O)cc43)CC1)C(=O)CC2; 9.80
COc1ccc2c(c1CCN1CCC(n3ccc4ccc(C(N)=O)cc43)CC1)CCCN2C(C)=O; 9.74

P: CNC(=O)c1ccc2ccn(C3CCN(CCc4cc5c(cc4OC)CCC(=O)N5C)CC3)c2c1
Q: CCN1C(=O)CCc2cc(OC)c(CCN3CCC(n4ccc5ccc(C(N)=O)cc54)CC3)cc21
(Q) Between the entries labelled P and Q , which has a larger pIC50 value on record? State your choice using its label.
(A) Q
(Q: 9.72, P: 9.48)

====

# targetOrSystem: 5-HT1A receptor (Sus scrofa, UniProt A0A4X1UTF5)
# Construct: Swine hippocampus was homogenized in a 50 mM Tris-Hcl buffer; from tissue; host or cells: swine hippocampus, membrane fraction
# Sequence (A0A4X1UTF5 1-422): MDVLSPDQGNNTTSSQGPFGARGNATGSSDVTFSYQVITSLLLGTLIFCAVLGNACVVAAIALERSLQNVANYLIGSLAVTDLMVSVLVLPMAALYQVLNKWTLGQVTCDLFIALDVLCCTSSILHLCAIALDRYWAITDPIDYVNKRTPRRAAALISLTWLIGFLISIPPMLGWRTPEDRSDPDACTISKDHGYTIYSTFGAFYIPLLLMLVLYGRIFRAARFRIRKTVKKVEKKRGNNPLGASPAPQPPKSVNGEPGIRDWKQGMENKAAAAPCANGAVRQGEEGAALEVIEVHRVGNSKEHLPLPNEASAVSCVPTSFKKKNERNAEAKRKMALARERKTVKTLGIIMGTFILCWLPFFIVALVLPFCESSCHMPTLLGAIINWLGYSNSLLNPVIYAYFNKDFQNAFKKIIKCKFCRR
# procedureText: Affinity for serotonin 1A receptor: inhibition of [3H]MPPF binding in swine hippocampal membrane fraction
# condition: low affinity IC50 divided by high affinity IC50; 1 or smaller = no intrinsic activity, 2 or greater = intrinsic activity
endpointLabel: L/H ratio

CNC(=O)c1ccc2ccn(C3CCN(CCc4cc5c(cc4OC)CCN(C)C5=O)CC3)c2c1 [Compound 38]; 0.7
CNC(=O)c1ccc2ccn(C3CCN(CCc4c(OC)ccc5c4OC(C)(C)CC5=O)CC3)c2c1 [Compound 20]; 0.8
COc1ccc2nc(C)oc2c1CCN1CCC(n2ccc3ccc(C(N)=O)cc32)CC1 [Compound 3]; 0.7
CON=C1CCCOc2cc(OC)c(CCN3CCC(n4ccc5ccc(C(N)=O)cc54)CC3)cc21 [Compound 13]; 0.7
